Each recorded value in this set is attributed to patent US9725518B2.

# Assayed Target: T1, N1 binding to cell surface expressed hJ1 (Homo sapiens, UniProt P78504)
# T1 construct: cell expressed full length human J1 (hJ1; HEK293 transfectants); expressed in transfected cells; host or cells: HEK293
# T1 sequence (P78504 34-1218): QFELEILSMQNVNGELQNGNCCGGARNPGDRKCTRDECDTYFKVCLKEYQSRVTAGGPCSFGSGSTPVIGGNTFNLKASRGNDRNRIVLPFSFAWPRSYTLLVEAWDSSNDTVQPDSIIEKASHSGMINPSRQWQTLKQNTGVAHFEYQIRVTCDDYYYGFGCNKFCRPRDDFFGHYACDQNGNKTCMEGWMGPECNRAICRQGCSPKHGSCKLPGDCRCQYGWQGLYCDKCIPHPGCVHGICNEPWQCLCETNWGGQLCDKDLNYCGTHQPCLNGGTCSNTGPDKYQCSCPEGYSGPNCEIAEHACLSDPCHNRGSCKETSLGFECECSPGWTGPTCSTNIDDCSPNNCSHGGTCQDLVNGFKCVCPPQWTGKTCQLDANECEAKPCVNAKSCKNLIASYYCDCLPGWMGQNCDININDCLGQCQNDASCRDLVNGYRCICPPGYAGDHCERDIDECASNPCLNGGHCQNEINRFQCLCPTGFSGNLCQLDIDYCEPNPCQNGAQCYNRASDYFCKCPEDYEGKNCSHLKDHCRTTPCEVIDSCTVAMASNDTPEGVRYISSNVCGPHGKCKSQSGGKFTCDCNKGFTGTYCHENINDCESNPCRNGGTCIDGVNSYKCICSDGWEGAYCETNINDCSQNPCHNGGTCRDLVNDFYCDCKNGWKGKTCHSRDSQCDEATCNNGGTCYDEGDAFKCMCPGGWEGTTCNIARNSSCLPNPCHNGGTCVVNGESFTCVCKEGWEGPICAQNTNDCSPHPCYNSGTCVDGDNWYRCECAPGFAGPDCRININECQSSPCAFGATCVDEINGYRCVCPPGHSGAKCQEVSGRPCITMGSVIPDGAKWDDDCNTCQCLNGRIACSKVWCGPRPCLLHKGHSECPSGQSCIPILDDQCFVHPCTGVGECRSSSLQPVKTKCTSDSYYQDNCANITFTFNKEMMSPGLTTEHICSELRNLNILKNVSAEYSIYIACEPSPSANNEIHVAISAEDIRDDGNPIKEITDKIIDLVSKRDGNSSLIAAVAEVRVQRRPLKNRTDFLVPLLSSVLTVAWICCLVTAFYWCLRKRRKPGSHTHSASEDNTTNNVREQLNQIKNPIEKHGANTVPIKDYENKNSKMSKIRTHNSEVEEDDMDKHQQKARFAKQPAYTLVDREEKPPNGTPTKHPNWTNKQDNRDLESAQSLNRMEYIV
# Procedure Details: Notch binding blocking assay (FACS): N1 EGF11-13 beads staining human J1-expressing cells
# Protocol Conditions: final antibody concentration 0.4 μg/ml
# Experimental: To functionally identify mAbs with the capacity to disrupt the J1-N1 protein:protein interaction, hybridoma culture supernatants were tested in a FACS-based binding assay. […] Human N1 EGF11-13 (411-526) was expressed in E. coli, refolded in vitro and labelled with purple fluorescent avidin-coated beads (Spherotech) as previously described. […] Cells were washed and re-suspended in staining buffer before being analysed with a FACSCalibur and data analysis with CellQuest. […]
Recorded Metric: Blocking of Notch1 binding to cell surface Jagged 1

J1-183D variant 8: humanised/de-immunised J1-183D: J1-183D_VL_2 + J1-183D_VH_4 (antibody, V domains shown) VH: QVQLVQSGAEVKKPGASVKVSCKASGYTFTDYAIHWVRQAPGQGLEWMGIINTYYGDSKYAQKFQGRVTMTVDTSTSTAYMELSSLRSEDTAVYYCARGYDGFAYWGQGTLVTVSSASTKGP VL: DIQMTQSPSSLSASVGDRVTITCRTSENIYSYLTWYQQKPGKAPKLLIYNAKTLASGVPSRFSGSGSGTDFTLTISSLQPEDFATYYCQHHYDIPWTFGGGTKLEIKRT ... + (Complete blocking)
J1-183D variant 15: humanised/de-immunised J1-183D: J1-183D_VL_4 + J1-183D_VH_3 (antibody, V domains shown) VH: QVQLVQSGAELKKPGASVKVSCKVSGYAFTDYAIHWVRQAPGQGLEWMGIINTYYGDSKYAQKFQGRVTMTVDTSTSTAYMELSSLRSEDTAVYYCARGYDGFAYWGQGTLVTVSSASTKGP VL: DIQMTQSPSSLSASVGDRVTITCRTSENIYSYLTWYQQKPGKAPKLLIYHAKILDSGVPSRFSGSGSGTDFTLTISSLQPEDFATYYCQHHYDIPWTFGGGTKLEIKRT ... + (Complete blocking)
